From: PubChem BioAssay (NCI)

- Tested on: UO-31 renal
- experiment: NCI-60 one-dose screen, 48 h
- experimental setup: 10 µM unless noted
This is part of a sample that, as a whole, favours compounds with a hit. Of some 83,000 tested, about 20% had one in any assay. The source made the active and inactive calls. How the source made its calls: active means growth percent below 10; inactive means the rest.
In this exercise, the only acceptable responses are T = active, F = inactive

Known results for compounds:
Task: Fill in: this test's call for O=C1/C(=C/c2ccccc2)CN(C(=O)c2cccnc2)C/C1=C\c1ccccc1 is ___
Result: T

Task: Fill in: this test's call for COc1cc(/C=C\c2cc(/C=C\c3ccc(O)c(OC)c3)n(C(=O)CNc3ccc(Cl)cc3)n2)ccc1O is ___
Result: F

Task: Fill in: this test's call for Cc1cccc(N2CCN(C(=S)c3ccc4c(c3)OCO4)CC2)c1 is ___
Result: F

Task: Fill in: this test's call for N#Cc1nc2c(S(=O)(=O)c3ccccc3)c(N)n(Cc3cccnc3)c2nc1C#N is ___
Result: F

Task: Fill in: this test's call for N#Cc1c(Nc2ccc(F)cc2)n[nH]c1-c1cccs1 is ___
Result: F

Task: Fill in: this test's call for CCCCCCC(CCCC)COC(=O)c1ccc(Cl)cc1 (stereo not given) is ___
Result: F

Task: Fill in: this test's call for Clc1nccc2c(-c3csc(-c4c[nH]c5ccccc45)n3)c[nH]c12 is ___
Result: F

Task: Fill in: this test's call for COc1cccc(OC)c1Oc1c(-c2nc3ccccc3s2)c(C)nn1-c1ccccc1 is ___
Result: F

Continuing:
Task: Fill in: this test's call for CC1(C)OC(=O)C(=Cc2cccc(Br)c2)C(=O)O1 is ___
Result: F

Task: Fill in: this test's call for COc1ccc(C/C(C)=C(\c2ccc(O)cc2)c2ccc(OCCN3CCCC3)cc2)cc1 is ___
Result: F
